# Test system: Pseudomonas aeruginosa PA14 dppBCDF deletion mutant
# experiment_notes: respiration area under curve with compound as sole nitrogen source, 24 h (OmniLog AUC (arbitrary units)); higher = more respiration / better utilisation as nitrogen source, active = 2000 or more; extreme values may be limits of the assay
Labels: 1.0 = active, 0.0 = inactive

>>> label_value("N[C@@H](Cc1ccccc1)C(=O)NCC(=O)O (plate: PM7)")
0.0
>>> label_value("O=C(O)[C@H](CO)NC(=O)[C@@H]1CCCN1 (plate: PM8)")
0.0
>>> label_value("O=C(O)[C@@H]1CCCN1C(=O)[C@@H]1CCCN1 (plate: PM7)")
0.0
>>> label_value("CC[C@H](C)[C@H](N)C(=O)N[C@@H](Cc1ccc(O)cc1)C(=O)O (plate: PM6)")
0.0
>>> label_value("CC(C)C[C@H](NC(=O)CN)C(=O)O (plate: PM6)")
0.0
>>> label_value("NC(=O)CC[C@H](NC(=O)[C@@H]1CCCN1)C(=O)O (plate: PM7)")
0.0
>>> label_value("CC(C)C[C@H](N)C(=O)NCC(=O)O (plate: PM6)")
1.0
>>> label_value("CC(C)[C@H](N)C(=O)N[C@@H](CC(N)=O)C(=O)O (plate: PM7)")
1.0
>>> label_value("CC[C@H](C)[C@H](N)C(=O)N[C@@H](CCC(N)=O)C(=O)O (plate: PM6)")
0.0
>>> label_value("C[C@H](N)C(=O)N[C@@H](CCC(N)=O)C(=O)O (plate: PM8)")
1.0
>>> label_value("N[C@@H](Cc1ccccc1)C(=O)N[C@@H](CCC(=O)O)C(=O)O (plate: PM8)")
0.0
>>> label_value("NCC(=O)N[C@H](CC(=O)O)C(=O)O (plate: PM8)")
0.0
>>> label_value("CC(C)[C@H](N)C(=O)N[C@@H](CCC(N)=O)C(=O)O (plate: PM8)")
0.0
>>> label_value("CC(C)[C@H](NC(=O)CN)C(=O)O (plate: PM6)")
0.0
>>> label_value("C[C@@H](N)C(=O)NCC(=O)NCC(=O)O (plate: PM8)")
0.0
>>> label_value("C[C@H](NC(=O)[C@@H](N)CCCN=C(N)N)C(=O)O (plate: PM6)")
1.0
>>> label_value("CC(C)C[C@H](N)C(=O)NCC(=O)NCC(=O)O (plate: PM8)")
1.0
>>> label_value("C[C@H](N)C(=O)N[C@@H](C)C(=O)O (plate: PM6)")
1.0
>>> label_value("CC(C)C(N)C(=O)NC(CO)C(=O)O (stereo not drawn) (plate: PM8)")
0.0
>>> label_value("CC(C)[C@H](N)C(=O)NCC(=O)O (plate: PM7)")
0.0
>>> label_value("NC(=O)C[C@H](NC(=O)[C@@H]1CCCN1)C(=O)O (plate: PM8)")
1.0
>>> label_value("CC[C@H](C)[C@H](NC(=O)[C@@H](N)CCCN=C(N)N)C(=O)O (plate: PM6)")
1.0
>>> label_value("C[C@H](N)C(=O)N[C@@H](CC(N)=O)C(=O)O (plate: PM6)")
1.0
